Data provenance is the supplement of paper PMC7125110.

B1: glmS ribozyme (parent)
chain: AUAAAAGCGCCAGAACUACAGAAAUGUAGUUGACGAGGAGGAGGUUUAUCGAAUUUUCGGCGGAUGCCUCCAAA

# Variants of: B1
# PROCEDURE TEXT: self-cleavage kobs at 2500 uM GlcN6P; higher = faster cleavage; RNA array
# REPORTED CONDITIONS: with glucosamine-6-phosphate
Fewer inactive variants are shown than the library holds.
MEASURED METRIC: self-cleavage kobs at 2500 uM GlcN6P (s⁻¹)

input_sequence="AUAAAAGCGCCAGACCUACAGAAAUGUAGUCGACGAGGAGCAGGUUUAUCGAAUUUGCGGCGGAUGCCUCCAAA [A15C U31C G41C U57G]" measured_metric="self-cleavage kobs at 2500 uM GlcN6P" unit_text=s⁻¹ rel=< test_value=1e-05
input_sequence="AUAAAAGCGCCAGAACUACAGAAAUGUAGUUGACGAGGAGGAUGUUUAUCGAAUUUUCGGCGUAUGCCUCCAAA [G43U G63U]" measured_metric="self-cleavage kobs at 2500 uM GlcN6P" unit_text=s⁻¹ rel=< test_value=1e-05
input_sequence="AUAAAAGCGCCAGAAUUACAGAAAUGUAGUUGACGAGGAGGGGGUUUAUCGAAUUUUCGGCGGAUGCCUCCAAA [C16U A42G]" measured_metric="self-cleavage kobs at 2500 uM GlcN6P" unit_text=s⁻¹ rel== test_value=0.00906
input_sequence="AUAAAUGCGCCAGAACUACAGAAAUGUAGUUGACGAGGAGGAGGUUUAUCGAAUUUUCGGCGGAUGCCCCCAAA [A6U U69C]" measured_metric="self-cleavage kobs at 2500 uM GlcN6P" unit_text=s⁻¹ rel== test_value=8.15e-05
input_sequence="AUAAAAGCGCCAGAACUACAGAAAUGUAGUUGACGAGGAGGAGUUUUAACGAAAUUUCGGCUGAUGCCUCCAAA [G44U U49A U54A G62U]" measured_metric="self-cleavage kobs at 2500 uM GlcN6P" unit_text=s⁻¹ rel=< test_value=1e-05
input_sequence="AUAAAAGUGCCAGAACUACAGAAAUGUAGUUGACUAGGAGGAGGUUUAUCGAAUUUUCGGCCGAUGCCUCCAAA [C8U G35U G62C]" measured_metric="self-cleavage kobs at 2500 uM GlcN6P" unit_text=s⁻¹ rel=< test_value=1e-05
input_sequence="AUAAAAGCGCCAGCACUACAGAAAUGUAGUUGAGGAGGAGGAGGUUUAUCGAAUUUUCGGCGGGUGCCUCCAAA [A14C C34G A64G]" measured_metric="self-cleavage kobs at 2500 uM GlcN6P" unit_text=s⁻¹ rel=< test_value=1e-05
input_sequence="AUAAAAGCGCCAGAACUACAGAAAUGUAGUUGACGAGGAGGAGGUUUAUCGAAUUUUGGGCGGAUGCGUCCAAA [C58G C68G]" measured_metric="self-cleavage kobs at 2500 uM GlcN6P" unit_text=s⁻¹ rel== test_value=9.87e-05
input_sequence="AUAAAAGCGCCAGAACUACAGAAAUGUAGUUGACGAGGAGAAGGUUUAUCGAAUUGUCGGCGGAUGCCUCCAAA [G41A U56G]" measured_metric="self-cleavage kobs at 2500 uM GlcN6P" unit_text=s⁻¹ rel== test_value=0.000109
input_sequence="AUAAAAGCGCCAGAACUACAGAAAUGUAGUUGACGAGGAGGAGGCUUAUCGAAUGUUCGGCGGAUGCCUCCAAA [U45C U55G]" measured_metric="self-cleavage kobs at 2500 uM GlcN6P" unit_text=s⁻¹ rel== test_value=0.00165
input_sequence="AUAAAAGCGCCAGAACUACAGAAAUGUAGUUGACGAGGAGGAGGUUUAUCGUAUCUUCGGCGGGUGCCUCCAAA [A52U U55C A64G]" measured_metric="self-cleavage kobs at 2500 uM GlcN6P" unit_text=s⁻¹ rel== test_value=4.16e-05
input_sequence="AUAAAAGCGCCAGAACUACAGAAAUGUAGUUGACGAGGAGGAGAUUUGUCGAAUAUUCGGCGGAUGCCUCCAAA [G44A A48G U55A]" measured_metric="self-cleavage kobs at 2500 uM GlcN6P" unit_text=s⁻¹ rel=< test_value=1e-05
input_sequence="AUAAAAGUGCCAGAACUACAGAAAUGUAGUUGUCGAGGAGGAGGUUUAUCGAAUUUUCGUCGGAUGCCUCCAAA [C8U A33U G60U]" measured_metric="self-cleavage kobs at 2500 uM GlcN6P" unit_text=s⁻¹ rel=< test_value=1e-05
input_sequence="AUAAAAGCGCCAUUACUACAGAAAUGUAGUUGACGAGGAGGAGGUUUAUCGAAUUUUCGGCGGAUGCCUCCAAA [G13U A14U]" measured_metric="self-cleavage kobs at 2500 uM GlcN6P" unit_text=s⁻¹ rel== test_value=0.000331
input_sequence="AUAAAAGCGCCAGAACUACAGAAAUGUAGUUGACGAGGAGGAGGUUUAUUGAAUUUUCGGCGGAUGCUUCCAAA [C50U C68U]" measured_metric="self-cleavage kobs at 2500 uM GlcN6P" unit_text=s⁻¹ rel== test_value=3e-05
input_sequence="AUAAAAGCGCCAGAACUACAGAAAUGUAGUUGACGAGGAGGAGCUUAAUCGAAUUUUCGGCGGAUGCCUCCAAA [G44C U47A]" measured_metric="self-cleavage kobs at 2500 uM GlcN6P" unit_text=s⁻¹ rel== test_value=5.07e-05
input_sequence="AUAAAAGCGCCAGAACUACAGAAAUGUAGUUGACGAGGAGGAGAUUAAUCGAAUUUUCGGCGGAUGCCUCAAAA [G44A U47A C71A]" measured_metric="self-cleavage kobs at 2500 uM GlcN6P" unit_text=s⁻¹ rel=< test_value=1e-05
input_sequence="AUAAAAGCGCCAGAACUACAGAAAUGUAGUUGACGAGGAGGAGGUUUAUUGAAUAUUCGGCGGAUGCCUCCAAA [C50U U55A]" measured_metric="self-cleavage kobs at 2500 uM GlcN6P" unit_text=s⁻¹ rel== test_value=4.32e-05
input_sequence="AUAAAAGCACCAGAACUACAGAAAUGUAGUUGACGAGGAGGAUGUUUAUCGAAUUUUCGGCGGAUGCCUCCAAA [G9A G43U]" measured_metric="self-cleavage kobs at 2500 uM GlcN6P" unit_text=s⁻¹ rel=< test_value=1e-05
input_sequence="AUAAAAGCGCCAGCACUACAGAAAUGUAGGUGACGAGGAGGAGGUUUAUCGAAUUUUGGGCGGAUGCCUCCAAA [A14C U30G C58G]" measured_metric="self-cleavage kobs at 2500 uM GlcN6P" unit_text=s⁻¹ rel== test_value=5.75e-05
input_sequence="AUAAAAGUGCCAGAAGUACAGAAAUGUAGUUGACGAGGAGGAGGUUUAUCUAAUUUUCGGCGGAUGCCUCCAAA [C8U C16G G51U]" measured_metric="self-cleavage kobs at 2500 uM GlcN6P" unit_text=s⁻¹ rel=< test_value=1e-05
input_sequence="AUAAAAACGCCAGAACUACAGAAAUGUAGUUGACGAGGAGGAGCUUUAUUGAAUUUUCGGCGGAUGCCUCCAAA [G7A G44C C50U]" measured_metric="self-cleavage kobs at 2500 uM GlcN6P" unit_text=s⁻¹ rel=< test_value=1e-05
